Data provenance is ChEMBL document CHEMBL1139170.

Tested on: Mus musculus
test summary: Analgesic activity in Albino mouse assessed as number of acetic acid-induced writhing at 50 mg/kg, po after 30 min
Assay type: functional
Just a reminder that ties go to rule not met: only Activity strictly below 20% counts as rule met.

Use these answered entries as a reference point.
compound | class assignment
CCCCC1C(=O)N(c2ccccc2)N(c2ccccc2)C1=O | rule not met
CN(C)c1ccc(/C=N/NCc2nc3ccc(Br)cc3c(=O)n2-c2nc(-c3ccc(Cl)cc3)cs2)cc1 | rule met
COc1ccccc1/C=N/NCc1nc2ccc(Br)cc2c(=O)n1-c1nc(-c2ccc(Cl)cc2)cs1 | rule not met
O=C1CSC(c2ccc(O)cc2)N1NCc1nc2ccc(Br)cc2c(=O)n1-c1nc(-c2ccc(Cl)cc2)cs1 (stereo not drawn) | rule not met
O=C1CSC(c2ccc(Cl)cc2)N1NCc1nc2ccc(Br)cc2c(=O)n1-c1nc(-c2ccc(Cl)cc2)cs1 (stereo not drawn) | rule not met

Query :: Activity under 20%? Item: O=c1c2cc(Br)ccc2nc(CN/N=C/c2ccc(O)cc2)n1-c1nc(-c2ccc(Cl)cc2)cs1
Result :: rule met

Query :: A record lists O=c1c2cc(Br)ccc2nc(CN/N=C/c2ccc(Cl)cc2)n1-c1nc(-c2ccc(Cl)cc2)cs1 . Is its Activity below 20%?
Result :: rule not met

Query :: Say whether its Activity is strictly beneath 20%. Entry: CN(C)c1ccc(C2C(Cl)C(=O)N2NCc2nc3ccc(Br)cc3c(=O)n2-c2nc(-c3ccc(Cl)cc3)cs2)cc1 (stereo not drawn)
Result :: rule not met

====

Listing of entries alongside the reported Activity.
Tested on: Rattus norvegicus
test summary: Antiinflammatory activity against carrageenan-induced hind paw oedema in Charles foster rat assessed as inhibition of paw oedema at 50 mg/kg, po after 1 hr
Type: functional
Design: scale not given: the % may be the effect or the level left
The figure you give is taken to be in %; do not add the unit.

compound | Activity, %
O=C1CSC(c2ccccc2Cl)N1NCc1nc2ccc(Br)cc2c(=O)n1-c1nc(-c2ccc(Cl)cc2)cs1 (stereo not given) | 38.35

Query :: Please report the measured Activity for O=C1C(Cl)C(c2ccc(Cl)cc2)N1NCc1nc2ccc(Br)cc2c(=O)n1-c1nc(-c2ccc(Cl)cc2)cs1 (stereo not given)
Result :: 33.07

Query :: Name the recorded Activity of the compound listed here: O=C1CSC(c2ccc(Cl)cc2)N1NCc1nc2ccc(Br)cc2c(=O)n1-c1nc(-c2ccc(Cl)cc2)cs1 (stereo not given)
Result :: 37.06

Query :: Indicate its recorded Activity; the compound in question is O=c1c2cc(Br)ccc2nc(CN/N=C/c2ccc(O)cc2)n1-c1nc(-c2ccc(Cl)cc2)cs1
Result :: 20.23

Query :: Determine from records and report Activity for O=C1C(Cl)C(c2ccc(O)cc2)N1NCc1nc2ccc(Br)cc2c(=O)n1-c1nc(-c2ccc(Cl)cc2)cs1 (stereo not given)
Result :: 30.65

Query :: Write down Activity measured for item O=C1C(Cl)C(c2ccccc2Cl)N1NCc1nc2ccc(Br)cc2c(=O)n1-c1nc(-c2ccc(Cl)cc2)cs1 (stereo not given)
Result :: 34.21

Query :: Please indicate Activity recorded for Cc1ccc(C2C(Cl)C(=O)N2NCc2nc3ccc(Br)cc3c(=O)n2-c2nc(-c3ccc(Cl)cc3)cs2)cc1 (stereo not given)
Result :: 29.88

Query :: Annotate the compound CN(C)c1ccc(C2C(Cl)C(=O)N2NCc2nc3ccc(Br)cc3c(=O)n2-c2nc(-c3ccc(Cl)cc3)cs2)cc1 (stereo not given) with its measured Activity.
Result :: 28.55

Query :: Hello, please tell me recorded Activity for this one: Cc1ccc(C2SCC(=O)N2NCc2nc3ccc(Br)cc3c(=O)n2-c2nc(-c3ccc(Cl)cc3)cs2)cc1 (stereo not given)
Result :: 34.25

Query :: State its Activity: O=c1c2cc(Br)ccc2nc(CN/N=C/c2ccccc2)n1-c1nc(-c2ccc(Cl)cc2)cs1
Result :: 18.75

Query :: Input O=C1CSC(c2ccc(O)cc2)N1NCc1nc2ccc(Br)cc2c(=O)n1-c1nc(-c2ccc(Cl)cc2)cs1 (stereo not given) , output reported Activity.
Result :: 35.13

Query :: Supply Activity value. Item: O=C1C(Cl)C(c2ccccc2)N1NCc1nc2ccc(Br)cc2c(=O)n1-c1nc(-c2ccc(Cl)cc2)cs1 (stereo not given)
Result :: 29.16

Query :: Please give the documented Activity of COc1ccccc1C1C(Cl)C(=O)N1NCc1nc2ccc(Br)cc2c(=O)n1-c1nc(-c2ccc(Cl)cc2)cs1 (stereo not given)
Result :: 32.45

Query :: Provide Activity value for the following compound: CCCCC1C(=O)N(c2ccccc2)N(c2ccccc2)C1=O
Result :: 38.9

Query :: Entry O=c1c2cc(Br)ccc2nc(CN/N=C/c2ccccc2Cl)n1-c1nc(-c2ccc(Cl)cc2)cs1 needs its Activity filled in; supply it.
Result :: 26.44

Query :: Using the record for Cc1ccc(/C=N/NCc2nc3ccc(Br)cc3c(=O)n2-c2nc(-c3ccc(Cl)cc3)cs2)cc1 , state its measured Activity.
Result :: 19.14

Query :: Please look at this compound and report its Activity: COc1ccc(/C=N/NCc2nc3ccc(Br)cc3c(=O)n2-c2nc(-c3ccc(Cl)cc3)cs2)cc1
Result :: 23.29

Query :: Using the record for COc1ccccc1C1SCC(=O)N1NCc1nc2ccc(Br)cc2c(=O)n1-c1nc(-c2ccc(Cl)cc2)cs1 (stereo not given) , state its measured Activity.
Result :: 36.98

Query :: Item O=c1c2cc(Br)ccc2nc(CN/N=C/c2ccc(Cl)cc2)n1-c1nc(-c2ccc(Cl)cc2)cs1 : provide Activity
Result :: 25.12

Query :: # return recorded Activity for entry CN(C)c1ccc(C2SCC(=O)N2NCc2nc3ccc(Br)cc3c(=O)n2-c2nc(-c3ccc(Cl)cc3)cs2)cc1 (stereo not given)
Result :: 32.89

Query :: Supply reported Activity belonging to this compound: COc1ccc(C2SCC(=O)N2NCc2nc3ccc(Br)cc3c(=O)n2-c2nc(-c3ccc(Cl)cc3)cs2)cc1 (stereo not given)
Result :: 36.11

====

Tested on: Mus musculus
test summary: Analgesic activity in Albino mouse assessed as number of acetic acid-induced writhing at 50 mg/kg, po after 30 min
Format: functional
Below: a set of entries, each annotated with reported Activity.
Write the value in % as a bare number.

compound | Activity [%]
O=C1C(Cl)C(c2ccc(O)cc2)N1NCc1nc2ccc(Br)cc2c(=O)n1-c1nc(-c2ccc(Cl)cc2)cs1 (configuration not stated) | 29.92
Cc1ccc(C2SCC(=O)N2NCc2nc3ccc(Br)cc3c(=O)n2-c2nc(-c3ccc(Cl)cc3)cs2)cc1 (configuration not stated) | 32.87
Cc1ccc(/C=N/NCc2nc3ccc(Br)cc3c(=O)n2-c2nc(-c3ccc(Cl)cc3)cs2)cc1 | 18.52

Query :: Fill in reported Activity for this entry: CN(C)c1ccc(C2SCC(=O)N2NCc2nc3ccc(Br)cc3c(=O)n2-c2nc(-c3ccc(Cl)cc3)cs2)cc1 (configuration not stated)
Result :: 28.76

Query :: Specify measured Activity for COc1ccccc1C1SCC(=O)N1NCc1nc2ccc(Br)cc2c(=O)n1-c1nc(-c2ccc(Cl)cc2)cs1 (configuration not stated) .
Result :: 35.43

Query :: Dear colleague, please send me the reported Activity for O=c1c2cc(Br)ccc2nc(CN/N=C/c2ccccc2)n1-c1nc(-c2ccc(Cl)cc2)cs1 when you can.
Result :: 17.12

Query :: In one line, give reported Activity of the entry O=c1c2cc(Br)ccc2nc(CN/N=C/c2ccccc2Cl)n1-c1nc(-c2ccc(Cl)cc2)cs1 .
Result :: 24.68

====

System: Rattus norvegicus
test summary: Antiinflammatory activity against carrageenan-induced hind paw oedema in Charles foster rat assessed as inhibition of paw oedema at 50 mg/kg, po after 1 hr
Type: functional
Parameters: scale not given: the % may be the effect or the level left
quantity name: Activity (%)
Enter your answer as a number in %; do not include the unit.

Solved entries (count: 3):
molecule | endpoint unit | measurement
O=C1CSC(c2ccccc2)N1NCc1nc2ccc(Br)cc2c(=O)n1-c1nc(-c2ccc(Cl)cc2)cs1 (centres undefined) | % | 33.88
COc1ccc(C2C(Cl)C(=O)N2NCc2nc3ccc(Br)cc3c(=O)n2-c2nc(-c3ccc(Cl)cc3)cs2)cc1 (centres undefined) | % | 31.67
COc1ccccc1/C=N/NCc1nc2ccc(Br)cc2c(=O)n1-c1nc(-c2ccc(Cl)cc2)cs1 | % | 24.66

Attention now shifts to the item below.
Query :: Give Activity for the following molecule: CN(C)c1ccc(/C=N/NCc2nc3ccc(Br)cc3c(=O)n2-c2nc(-c3ccc(Cl)cc3)cs2)cc1
Result :: 17.88

====

Examples of compounds with documented Activity follow.
Test system: Mus musculus
test summary: Analgesic activity in Albino mouse assessed as number of acetic acid-induced writhing at 50 mg/kg, po after 30 min
Format: functional
Respond with the bare value in %.

For orientation, consider the following solved cases.
compound | endpoint unit | Activity
O=C1CSC(c2ccccc2Cl)N1NCc1nc2ccc(Br)cc2c(=O)n1-c1nc(-c2ccc(Cl)cc2)cs1 (stereo not given) | % | 37.36
COc1ccccc1C1C(Cl)C(=O)N1NCc1nc2ccc(Br)cc2c(=O)n1-c1nc(-c2ccc(Cl)cc2)cs1 (stereo not given) | % | 31.89
COc1ccc(/C=N/NCc2nc3ccc(Br)cc3c(=O)n2-c2nc(-c3ccc(Cl)cc3)cs2)cc1 | % | 21.69

Query :: Supply recorded Activity for Cc1ccc(C2C(Cl)C(=O)N2NCc2nc3ccc(Br)cc3c(=O)n2-c2nc(-c3ccc(Cl)cc3)cs2)cc1 (stereo not given) here.
Result :: 29.12

Query :: Entry O=C1C(Cl)C(c2ccc(Cl)cc2)N1NCc1nc2ccc(Br)cc2c(=O)n1-c1nc(-c2ccc(Cl)cc2)cs1 (stereo not given) needs its Activity filled in; supply it.
Result :: 32.62

Query :: Give the reported Activity for this compound. COc1ccc(C2SCC(=O)N2NCc2nc3ccc(Br)cc3c(=O)n2-c2nc(-c3ccc(Cl)cc3)cs2)cc1 (stereo not given)
Result :: 34.27

Query :: Please list Activity recorded for the compound O=C1C(Cl)C(c2ccccc2)N1NCc1nc2ccc(Br)cc2c(=O)n1-c1nc(-c2ccc(Cl)cc2)cs1 (stereo not given)
Result :: 28.59

Query :: Tell me its Activity given O=C1CSC(c2ccccc2)N1NCc1nc2ccc(Br)cc2c(=O)n1-c1nc(-c2ccc(Cl)cc2)cs1 (stereo not given) as the entry.
Result :: 32.45

Query :: For the compound O=C1C(Cl)C(c2ccccc2Cl)N1NCc1nc2ccc(Br)cc2c(=O)n1-c1nc(-c2ccc(Cl)cc2)cs1 (stereo not given) , report Activity.
Result :: 34.11

Query :: Return Activity (reported value) for this compound: COc1ccc(C2C(Cl)C(=O)N2NCc2nc3ccc(Br)cc3c(=O)n2-c2nc(-c3ccc(Cl)cc3)cs2)cc1 (stereo not given)
Result :: 30.67
